measuredTarget: IDH2 R140Q (Homo sapiens, UniProt P48735, R140Q)
Sequence (P48735 40-452 R140Q): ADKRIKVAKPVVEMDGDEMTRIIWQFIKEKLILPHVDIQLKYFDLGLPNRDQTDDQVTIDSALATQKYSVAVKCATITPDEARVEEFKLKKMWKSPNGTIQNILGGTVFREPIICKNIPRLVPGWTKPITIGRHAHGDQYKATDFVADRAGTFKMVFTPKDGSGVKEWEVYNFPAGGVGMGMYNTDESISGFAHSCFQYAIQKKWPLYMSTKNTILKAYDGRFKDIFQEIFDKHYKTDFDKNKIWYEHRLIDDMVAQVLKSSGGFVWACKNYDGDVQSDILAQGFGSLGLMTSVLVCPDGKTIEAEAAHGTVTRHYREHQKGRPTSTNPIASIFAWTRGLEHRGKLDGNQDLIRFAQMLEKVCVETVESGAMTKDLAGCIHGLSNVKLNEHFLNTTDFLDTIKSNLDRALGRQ
methodNotes: IDH2 R140Q enzymatic assay (cofactor depletion, similar format)
Type: biochemical
conditionInfo: read-out: Enz R140Q
Listed here are compounds together with their documented IC50.

Some solved entries appear below for comparison.
CC(C)Nc1nc(Nc2ccnc(N(C)C)c2)nc(-c2ccccc2)n1 [Compound 293]
< 100 nM
CC(C)(CO)Nc1nc(Nc2ccnc(C(F)(F)F)c2)nc(-c2cccc(C(F)(F)F)n2)n1 [Compound 562]
100 to 1000 nM

Notebook: CC(C)Nc1nc(Nc2ccnc(N3CCC3)c2)nc(-c2ccccc2)n1 [Compound 299] , IC50 read as < 100 nM

Notebook: CC(C)Nc1nc(Nc2ccc(O)cc2)nc(-c2ccccc2)n1 [Compound 133] , IC50 read as 100 to 1000 nM

Notebook: CS(=O)(=O)c1cccc(Nc2nc(NCC3CC3)nc(-c3cccc(C(F)(F)F)n3)n2)c1 [Compound 607] , IC50 read as 100 to 1000 nM

Notebook: c1ccc(-c2nc(NCC3CC3)nc(Nc3ccncc3)n2)cc1 [Compound 216] , IC50 read as < 100 nM

---

measuredTarget: IDH2 R172K (Homo sapiens, UniProt P48735, R172K)
Sequence (P48735 40-452 R172K): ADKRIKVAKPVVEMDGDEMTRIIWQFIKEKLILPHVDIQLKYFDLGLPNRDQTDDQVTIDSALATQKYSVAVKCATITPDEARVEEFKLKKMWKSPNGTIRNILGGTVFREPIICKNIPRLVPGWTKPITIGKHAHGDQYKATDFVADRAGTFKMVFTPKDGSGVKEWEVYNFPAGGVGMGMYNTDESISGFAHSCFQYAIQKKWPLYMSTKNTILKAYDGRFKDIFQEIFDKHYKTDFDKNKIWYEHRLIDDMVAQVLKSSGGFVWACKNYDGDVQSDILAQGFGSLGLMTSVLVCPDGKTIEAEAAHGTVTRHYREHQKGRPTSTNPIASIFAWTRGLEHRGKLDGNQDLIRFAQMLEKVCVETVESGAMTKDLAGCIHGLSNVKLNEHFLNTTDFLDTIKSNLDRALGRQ
methodNotes: IDH2 R172K enzymatic assay (NADPH cofactor depletion, diaphorase/resazurin readout)
conditionInfo: read-out: Enz R172K
Listed here are compounds together with their documented IC50.

Some solved entries appear below for comparison.
CC1(CNc2nc(Nc3ccnc(C(F)(F)F)c3)nc(-c3cccc(C(F)(F)F)n3)n2)COC1
< 100 nM
COC(C)(C)CNc1nc(Nc2ccncc2)nc(-c2ccccc2)n1
1000 to 10000 nM
CC(C)Nc1nc(Nc2cc(F)cc(F)c2)nc(-c2nc(N)cc(C(F)(F)F)n2)n1
< 100 nM

Notebook: "CC(C)Nc1nc(Nc2ccnc(C3(O)CC3)c2)nc(-c2cccc(C(F)(F)F)n2)n1" , IC50 read as 100 to 1000 nM

---

System: U87MG pLVX-IDH2 R140Q-neo cells
methodNotes: U87MG pLVX-IDH2 R140Q-neo cell based assay, 2-HG in media by LC-MS at 48 hours
conditionInfo: Homo sapiens, U-87 MG
readoutType: IC50

CC(C)Nc1nc(Nc2ccc(OCC3CC3)nc2)nc(-c2ccccc2)n1
100 to 1000 nM
CC(C)Nc1nc(Nc2ccc(Cl)nc2)nc(-c2ccccc2)n1
100 to 1000 nM

Notebook: "CC(C)(C)Nc1nc(Nc2ccnc(C3(C#N)CC3)c2)nc(-c2cccc(C(F)(F)F)n2)n1" , IC50 read as < 100 nM

Notebook: "CC(C)Nc1nc(Nc2cccc(S(C)(=O)=O)c2)nc(-c2cccc(C(F)F)n2)n1" , IC50 read as < 100 nM

---

Listed here are compounds together with their documented pIC50.
measuredTarget: IDH2 R172K (Homo sapiens, UniProt P48735, R172K)
methodNotes: IDH2 R172K enzymatic assay (NADPH cofactor depletion, diaphorase/resazurin readout)
conditionInfo: read-out: Enz R172K
pIC50: −log10 of the molar value.

CC(C)(C)Nc1nc(Nc2ccncc2)nc(-c2ccccc2)n1
5.00 to 6.00
CC(C)(CO)Nc1nc(Nc2ccnc(C(F)(F)F)c2)nc(-c2cccc(C(F)(F)F)n2)n1
> 7.00
Cc1ccccc1Nc1nc(NC(C)C)nc(-c2ccccc2)n1
5.00 to 6.00
COc1cc(Cl)cc(-c2nc(Nc3cc(F)cc(F)c3)nc(NC(C)C)n2)n1
6.00 to 7.00
CC(C)Nc1nc(Nc2ccnc(C(F)(F)F)c2)nc(-c2cccc(N)n2)n1
> 7.00

Notebook: "CC(C)Nc1nc(Nc2ccnc(CF)c2)nc(-c2cccc(C(F)(F)F)n2)n1" , pIC50 read as > 7.00

Notebook: "CC(C)Nc1nc(Nc2ccnc(CC#N)c2)nc(-c2cccc(C(F)(F)F)n2)n1" , pIC50 read as 6.00 to 7.00

Notebook: OC1CC1Nc1nc(Nc2ccnc(C(F)(F)F)c2)nc(-c2cccc(C(F)(F)F)n2)n1 (centres unmarked) [Compound 568] , pIC50 read as 6.00 to 7.00
